Just for reference, ChEMBL document CHEMBL4190315 is where these values come from.

method-notes: Selectivity index, ratio of IC50 for equine serum BChE to IC50 for electric eel AChE
Label t when Ratio IC50 is at or above 2; anything below gets f.

Reference set (3 entries):
COc1ccc(/C=C/C(=O)Nc2ccc(CN(C)Cc3ccccc3)cc2)cc1
t
CCN(Cc1ccccc1)Cc1ccc(NC(=O)Cc2ccc(O)c(O)c2)cc1
f
CN(Cc1ccccc1)Cc1ccc(NC(=O)Cc2ccc(O)c(O)c2)cc1
f

Ask: Form field: Ratio IC50 at least 2? Entry: "CCN(Cc1ccccc1)Cc1ccc(NC(=O)Cc2ccc(OC)c(O)c2)cc1"
Reply: f

Ask: Form field: Ratio IC50 at least 2? Entry: "CCN(Cc1ccccc1)Cc1ccc(NC(=O)Cc2ccc(O)cc2)cc1"
Reply: f

Ask: Form field: Ratio IC50 at least 2? Entry: "COc1cc2cc(-c3ccc(CN(C)Cc4ccccc4)cc3)c(=O)oc2cc1OC"
Reply: t

Ask: Form field: Ratio IC50 at least 2? Entry: "COc1ccc(CC(=O)Nc2ccc(CN(C)Cc3ccccc3)cc2)cc1O"
Reply: t

Ask: Form field: Ratio IC50 at least 2? Entry: "CN(Cc1ccccc1)Cc1ccc(NC(=O)/C=C/c2ccccc2)cc1"
Reply: f
